log10 of Ki values, listed per item
molecular target: human full-length glucocorticoid receptor (Homo sapiens, UniProt P04150); assay: Glucocorticoid Receptor Binding Assay (I), fluorescence polarization, Fluormone GS Red; set-up: purified human recombinant full-length glucocorticoid receptor; purchased Invitrogen Part #2893; settings: GR Binding Assay (I); read-out: GR (Ki, nM) (GR Binding Assay (I))
Sequence (P04150 whole entry): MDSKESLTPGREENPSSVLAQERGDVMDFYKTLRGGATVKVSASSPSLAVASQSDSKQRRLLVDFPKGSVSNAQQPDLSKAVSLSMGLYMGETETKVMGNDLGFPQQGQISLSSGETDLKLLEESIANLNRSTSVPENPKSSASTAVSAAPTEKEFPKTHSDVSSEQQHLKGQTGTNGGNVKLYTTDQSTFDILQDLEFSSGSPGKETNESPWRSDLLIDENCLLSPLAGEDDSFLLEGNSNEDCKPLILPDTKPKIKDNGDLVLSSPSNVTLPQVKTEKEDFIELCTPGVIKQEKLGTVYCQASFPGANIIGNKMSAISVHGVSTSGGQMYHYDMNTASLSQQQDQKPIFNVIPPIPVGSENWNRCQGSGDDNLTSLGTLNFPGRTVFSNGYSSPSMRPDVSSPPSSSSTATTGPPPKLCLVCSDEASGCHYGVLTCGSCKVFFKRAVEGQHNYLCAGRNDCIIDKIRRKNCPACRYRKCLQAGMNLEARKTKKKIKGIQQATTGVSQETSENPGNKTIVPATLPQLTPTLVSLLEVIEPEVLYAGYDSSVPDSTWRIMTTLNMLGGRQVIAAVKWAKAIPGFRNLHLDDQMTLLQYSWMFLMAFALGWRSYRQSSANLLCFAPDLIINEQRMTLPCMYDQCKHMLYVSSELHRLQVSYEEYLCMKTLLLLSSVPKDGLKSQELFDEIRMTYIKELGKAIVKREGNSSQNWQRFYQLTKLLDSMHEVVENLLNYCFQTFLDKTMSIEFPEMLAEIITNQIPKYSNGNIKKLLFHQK
Property Measured: log10 of Ki (log10 of the value in nM)

{"columns": ["Compound", "Test Target", "log10 of Ki"],
 "data": [
  ["CN(C)C(=O)c1ccc(-c2ccc3c(n2)Oc2ccccc2C3C(C)(C)C(=O)Nc2ccn(C)n2)cc1 (stereo not shown)", "human full-length glucocorticoid receptor (Homo sapiens, UniProt P04150)", 2.30],
  ["CN(C)C(=O)c1ccc(-c2ccc3c(n2)Oc2ccccc2C3C2(C(=O)Nc3nncs3)CCOCC2)cc1 (stereo not shown)", "human full-length glucocorticoid receptor (Homo sapiens, UniProt P04150)", 2.63],
  ["CC(C)(C(=O)Nc1nncs1)[C@H]1c2ccccc2Oc2nc(C(=O)NCc3ccccc3)ccc21", "human full-length glucocorticoid receptor (Homo sapiens, UniProt P04150)", 1.03],
  ["CCCNC(=O)c1ccc(-c2ccc3c(n2)Oc2ccccc2[C@@H]3C(C)(C)C(=O)Nc2nncs2)cc1", "human full-length glucocorticoid receptor (Homo sapiens, UniProt P04150)", 1.61],
  ["CC(C)(C(=O)Nc1nncs1)[C@H]1c2ccccc2Oc2nc(-c3ccc(C(=O)O)c(F)c3)ccc21", "human full-length glucocorticoid receptor (Homo sapiens, UniProt P04150)", 0.90],
  ["CC(C)(C(=O)Nc1nncs1)[C@H]1c2ccccc2Oc2nc(-c3cccnc3)ccc21", "human full-length glucocorticoid receptor (Homo sapiens, UniProt P04150)", 1.52],
  ["CN(C)[C@@H]1CCN(C(=O)c2ccc(-c3ccc4c(n3)Oc3ccccc3[C@@H]4C(C)(C)C(=O)Nc3nncs3)cc2)C1", "human full-length glucocorticoid receptor (Homo sapiens, UniProt P04150)", 1.83],
  ["CC(C)(C(=O)Nc1nncs1)[C@H]1c2ccccc2Oc2nc(-c3ccc(S(=O)(=O)N4CCOCC4)cc3)ccc21", "human full-length glucocorticoid receptor (Homo sapiens, UniProt P04150)", 1.05],
  ["CC(C)(C(=O)Nc1nncs1)[C@H]1c2ccccc2Oc2nc(-c3ccc(C(=O)N4CCC(c5ccccc5)CC4)cc3)ccc21", "human full-length glucocorticoid receptor (Homo sapiens, UniProt P04150)", 1.53],
  ["CC(C)(N)c1ccc(-c2ccc3c(n2)Oc2ccccc2[C@@H]3C(C)(C)C(=O)Nc2nncs2)cc1", "human full-length glucocorticoid receptor (Homo sapiens, UniProt P04150)", 1.98],
  ["CC(C)(C(=O)Nc1nncs1)[C@H]1c2ccccc2Oc2nc(C3=CCNCC3)ccc21", "human full-length glucocorticoid receptor (Homo sapiens, UniProt P04150)", 2.98],
  ["CC(C)(C(=O)Nc1nncs1)[C@H]1c2ccccc2Oc2nc(-c3ccc(C(=O)N4CCC(Cc5ccccc5)CC4)cc3)ccc21", "human full-length glucocorticoid receptor (Homo sapiens, UniProt P04150)", 1.48],
  ["CC(C)(C(=O)Nc1nncs1)C1c2ccccc2Oc2cc(C(=O)N3CCOCC3)ccc21 (stereo not shown)", "human full-length glucocorticoid receptor (Homo sapiens, UniProt P04150)", 2.54],
  ["CC(C)(C(=O)Nc1nnc(C(F)(F)F)s1)[C@H]1c2ccccc2Oc2nc(-c3ccc(C(=O)N4CCCC4)c(F)c3)ccc21", "human full-length glucocorticoid receptor (Homo sapiens, UniProt P04150)", 1.35],
  ["COc1cc(-c2ccc3c(n2)Oc2ccccc2[C@@H]3C(C)(C)C(=O)Nc2nncs2)ccc1C(=O)N(C)C", "human full-length glucocorticoid receptor (Homo sapiens, UniProt P04150)", 0.75],
  ["CC(C)(C(=O)Nc1nncs1)[C@H]1c2ccccc2Oc2nc(-c3ccc(C(=O)N4CCCN(Cc5ccccc5)CC4)cc3)ccc21", "human full-length glucocorticoid receptor (Homo sapiens, UniProt P04150)", 2.38],
  ["CC(C)(C(=O)Nc1nncs1)[C@H]1c2ccccc2Oc2nc(-c3ccc(C(=O)N4CCC(C(F)(F)F)CC4)cc3)ccc21", "human full-length glucocorticoid receptor (Homo sapiens, UniProt P04150)", 1.31],
  ["CN(CCS(C)(=O)=O)C(=O)c1ccc(-c2ccc3c(n2)Oc2ccccc2[C@@H]3C(C)(C)C(=O)Nc2nncs2)cc1", "human full-length glucocorticoid receptor (Homo sapiens, UniProt P04150)", 1.09],
  ["CC(C)(C(=O)Nc1nncs1)[C@H]1c2ccccc2Oc2nc(-c3ccc(C(=O)N4CCC(S(C)(=O)=O)C4)cc3)ccc21 (stereo partly shown)", "human full-length glucocorticoid receptor (Homo sapiens, UniProt P04150)", 1.14],
  ["CN(C)C(=O)CNC(=O)Nc1ccc2c(n1)Oc1ccccc1[C@@H]2C(C)(C)C(=O)Nc1nncs1", "human full-length glucocorticoid receptor (Homo sapiens, UniProt P04150)", 2.84],
  ["CC(C)(C(=O)Nc1nncs1)[C@H]1c2ccccc2Oc2nc(-c3ccc(C(=O)N4CCN(CCO)CC4)cc3)ccc21", "human full-length glucocorticoid receptor (Homo sapiens, UniProt P04150)", 0.41],
  ["CN(CCOC(C)(C)C)C(=O)c1ccc(-c2ccc3c(n2)Oc2ccccc2[C@@H]3C(C)(C)C(=O)Nc2nncs2)cc1", "human full-length glucocorticoid receptor (Homo sapiens, UniProt P04150)", 2.10],
  ["CN(C)C(=O)c1ccc(-c2ccc3c(n2)Oc2ccccc2[C@H]3C(C)(C)C(=O)Nc2nncs2)cc1", "human full-length glucocorticoid receptor (Homo sapiens, UniProt P04150)", 2.69],
  ["CN(C)C(=O)c1ccc(-c2ccc3c(n2)Oc2ccccc2C3C(C)(C)C(=O)Nc2ncn[nH]2)cc1 (stereo not shown)", "human full-length glucocorticoid receptor (Homo sapiens, UniProt P04150)", 1.82],
  ["CNC(=O)c1ccc2c(c1)Oc1ccccc1C2C(C)(C)C(=O)Nc1nncs1 (stereo not shown)", "human full-length glucocorticoid receptor (Homo sapiens, UniProt P04150)", 2.09],
  ["Cc1nnc(NC(=O)C(C)(C)C2c3ccccc3Oc3cc(-c4ccc(C(=O)N5CCOCC5)cc4)ncc32)s1 (stereo not shown)", "human full-length glucocorticoid receptor (Homo sapiens, UniProt P04150)", 2.04],
  ["CC(C)(C(=O)Nc1nncs1)[C@H]1c2ccccc2Oc2nc(-c3ccc(C(=O)NCc4ccccc4)cc3)ccc21", "human full-length glucocorticoid receptor (Homo sapiens, UniProt P04150)", 0.77]
]}

All values here come from patent US8034940B2.
